FYI, the data here is from patent US20230416248A1.

# system: BRM (Homo sapiens, UniProt P51531)
# Construct: made in house; host or cells: High Five insect cells
# Sequence (P51531 whole entry): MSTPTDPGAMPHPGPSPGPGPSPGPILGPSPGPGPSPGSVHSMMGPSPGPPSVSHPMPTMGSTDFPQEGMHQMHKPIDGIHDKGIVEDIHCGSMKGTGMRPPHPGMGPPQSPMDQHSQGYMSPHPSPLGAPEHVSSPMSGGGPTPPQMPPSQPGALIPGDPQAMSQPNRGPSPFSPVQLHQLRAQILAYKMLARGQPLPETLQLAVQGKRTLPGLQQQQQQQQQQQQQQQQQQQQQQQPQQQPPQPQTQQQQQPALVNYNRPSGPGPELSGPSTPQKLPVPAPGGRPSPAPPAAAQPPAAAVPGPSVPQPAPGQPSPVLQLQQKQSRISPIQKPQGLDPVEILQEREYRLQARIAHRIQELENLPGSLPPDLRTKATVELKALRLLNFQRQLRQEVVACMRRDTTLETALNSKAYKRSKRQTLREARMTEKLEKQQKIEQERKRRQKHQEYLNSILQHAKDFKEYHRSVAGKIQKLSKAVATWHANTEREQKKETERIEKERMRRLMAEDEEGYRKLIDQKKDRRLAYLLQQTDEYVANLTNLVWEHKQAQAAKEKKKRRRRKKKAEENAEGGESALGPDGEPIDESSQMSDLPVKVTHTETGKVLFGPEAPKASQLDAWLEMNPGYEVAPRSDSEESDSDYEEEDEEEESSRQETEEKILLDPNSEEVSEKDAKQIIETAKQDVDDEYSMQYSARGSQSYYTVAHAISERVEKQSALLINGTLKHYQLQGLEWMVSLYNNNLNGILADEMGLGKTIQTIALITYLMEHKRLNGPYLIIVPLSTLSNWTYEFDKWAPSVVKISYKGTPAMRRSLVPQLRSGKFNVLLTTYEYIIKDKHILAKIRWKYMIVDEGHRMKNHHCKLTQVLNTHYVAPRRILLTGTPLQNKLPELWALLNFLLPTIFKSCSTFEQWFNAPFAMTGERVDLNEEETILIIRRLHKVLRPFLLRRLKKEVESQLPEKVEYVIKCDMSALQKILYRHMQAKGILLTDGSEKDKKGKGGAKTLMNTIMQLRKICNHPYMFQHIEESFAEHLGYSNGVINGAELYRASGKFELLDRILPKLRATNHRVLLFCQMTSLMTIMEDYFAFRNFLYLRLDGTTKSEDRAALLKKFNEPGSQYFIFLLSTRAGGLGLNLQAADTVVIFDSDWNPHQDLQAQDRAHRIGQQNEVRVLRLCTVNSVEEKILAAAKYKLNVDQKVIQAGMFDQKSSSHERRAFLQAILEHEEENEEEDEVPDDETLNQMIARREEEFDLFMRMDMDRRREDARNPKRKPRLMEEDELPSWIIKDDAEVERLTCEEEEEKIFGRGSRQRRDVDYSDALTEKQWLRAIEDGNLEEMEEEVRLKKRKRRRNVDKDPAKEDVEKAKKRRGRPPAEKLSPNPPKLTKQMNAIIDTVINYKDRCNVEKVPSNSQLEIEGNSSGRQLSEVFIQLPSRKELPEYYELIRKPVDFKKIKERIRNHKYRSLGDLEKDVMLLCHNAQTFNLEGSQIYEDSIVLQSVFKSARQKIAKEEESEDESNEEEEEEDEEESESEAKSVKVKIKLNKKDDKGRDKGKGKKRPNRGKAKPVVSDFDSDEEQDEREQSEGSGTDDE
# experiment: ATPase catalytic activity of BRM, ADP-Glo in vitro biochemical assay
# assaySetup: selectivity ratio BRG1 IC50 / BRM IC50
The label is Y for Ratio* (BRG1 IC50 (μM) divided by BRM IC50 (μM)) below 10 and N for Ratio* (BRG1 IC50 (μM) divided by BRM IC50 (μM)) equal to or exceeding 10.

>>> assignedcategory("CS(=O)(=O)c1cc(C(=O)NCc2cc3nc(-c4cccc(N5CC[C@@H]6COC[C@@H]6C5)n4)ccc3cn2)ccc1Cl")
"N"
>>> assignedcategory("CC(C)Oc1cccc(-c2ccc3cnc(CNC(=O)c4ccc5c(c4)S(=O)(=O)CCOC5)cc3n2)n1")
"N"
>>> assignedcategory("COC1CCOc2c(-c3ccc4cnc(CNC(=O)c5ccc6c(c5)S(=O)(=O)CCOC6)cc4n3)cccc21 (stereo not shown)")
"Y"

# ---- query compound ----
Task item: Record `C[C@@H]1CN(c2cccc(-c3ccc4cnc(CNC(=O)c5ccc6c(c5)S(=O)(=O)[C@@H](C)COC6)cc4n3)n2)C[C@H](C)O1` : is its Ratio* (BRG1 IC50 (μM) divided by BRM IC50 (μM)) strictly below 10?
Reply: Y
